# Tested on: GB4
# test summary: qHTS profiling for inhibitors of Plasmodium falciparum proliferation (AID 504749); note: nearly all actives have a fitted effect of over 60% in size
# condition parameters: P. falciparum in erythrocytes, SYBR Green DNA, 72 h; series mostly up to 28.7 µM
Records with an inconclusive call do not appear. Active and inactive are the calls of the source. Calls come from the whole dose curve; as a rule, active = well fitted inhibition curve with a large enough effect; inconclusive = small, poorly fitted or top-dose-only effect; inactive = flat fitted curve, though single readings scatter.
Outcomes you can answer with include only these: true (1) (active), false (0) (inactive)

Some solved cases for reference:
CO/N=C(/C(=O)N[C@@H]1C(=O)N2C(C(=O)O)=C(CSc3nc(C)c(CC(=O)O)s3)CS[C@H]12)c1csc(N)n1: false (0)
Cc1ccc(/C=C2/C(=O)C3(C)CCC2C3(C)C)cc1 (configuration not stated): false (0)
CC1(C)SC2[C@@H](N=CN3CCCCCC3)C(=O)N2[C@H]1C(=O)O (some centres not stated): false (0)
O=C(O)[C@H]1C[C@@H](CP(=O)(O)O)CCN1: false (0)
OCC1O[C@H](O[C@H]2C(O)C(O)C(O)O[C@@H]2CO)C(O)C(O)C1O (some centres not stated): false (0)

What did this assay record as the result for CC(c1ncncc1F)[C@](O)(Cn1cncn1)c1ccc(F)cc1F (some centres not stated) ?
false (0)

Given CN(C)CC[C@@](O)(c1ccccc1)c1ccccc1Cl , state the outcome it received in this test.
true (1)

Identify the outcome logged in this assay for the molecule shown: O=[N+]([O-])O[C@H]1CO[C@H]2[C@@H]1OC[C@H]2O
false (0)

State the result this test recorded for C=CCN1CC(C(=O)N(CCCN(C)C)C(=O)NCC)CC2c3cccc4[nH]cc(c34)CC21 (configuration not stated) .
true (1)

# outcome recorded in this test, key = CC1CN(c2c(F)c(N)c3c(=O)c(C(=O)O)cn(C4CC4)c3c2F)CC(C)N1 (configuration not stated)
false (0)

Ref: PubChem BioAssay (NCATS)
